Field: IC50. Provide a value for each of the compounds that follow.
- SYSTEM_NAME: α-amylase derived from human salivary gland (HSA) (Homo sapiens, UniProt P0DUB6)
- Construct: purchased International Reagents Corp. Japan Calibzyme AMY
- Sequence (P0DUB6 16-511): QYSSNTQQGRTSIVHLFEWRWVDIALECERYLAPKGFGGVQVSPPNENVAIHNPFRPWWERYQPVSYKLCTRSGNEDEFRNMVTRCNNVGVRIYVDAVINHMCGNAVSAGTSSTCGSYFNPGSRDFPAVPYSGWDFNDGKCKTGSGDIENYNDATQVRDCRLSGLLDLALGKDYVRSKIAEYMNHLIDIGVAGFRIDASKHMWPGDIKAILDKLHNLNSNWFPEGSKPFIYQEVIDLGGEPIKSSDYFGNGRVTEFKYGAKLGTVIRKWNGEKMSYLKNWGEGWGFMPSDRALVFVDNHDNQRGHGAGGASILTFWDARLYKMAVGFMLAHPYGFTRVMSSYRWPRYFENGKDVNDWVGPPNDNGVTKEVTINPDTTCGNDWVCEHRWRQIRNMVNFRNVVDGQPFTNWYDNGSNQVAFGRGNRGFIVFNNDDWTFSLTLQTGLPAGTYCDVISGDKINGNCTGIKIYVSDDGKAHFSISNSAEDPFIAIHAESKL
- ASSAY_EXPLANATION: In vitro amylase activity inhibition test, HSA (blue starch, Neo Amylase Test)
- Type: biochemical
- EXPERIMENTAL_CONDITIONS: 37° C., 30 minutes, blue starch substrate
Give bare numbers, in mM.

>>> numeric_readout("C[C@H]1O[C@H](O[C@H]2[C@H](O)[C@@H](O)[C@@H](O[C@H]3[C@H](O)[C@@H](O)CNC[C@H]3O)O[C@@H]2CO)[C@H](O)[C@@H](O)[C@@H]1O [DOG2Az]")
0.037
>>> numeric_readout("C[C@H]1O[C@H](O[C@H]2[C@H](O)[C@@H](O)[C@@H](O[C@H]3[C@H](O)[C@@H](O)CNC[C@H]3O)O[C@@H]2CO)[C@H](O)[C@@H](O)[C@@H]1O[C@H]1O[C@H](CO)[C@@H](O)[C@H](O)[C@H]1O [GDOG2Az]")
0.028

Next up:
Sure, the documented IC50 for OCC1OC(OC2C(CO)OC(OC3C(O)CNCC(O)C3O)C(O)C2O)C(O)C(O)C1O (stereo not drawn) [Example G2Az, reference compound] is 0.082

Source of measurements: patent US6596696B1
